Numbers sourced from ChEMBL document CHEMBL4402551.

Please go through the items and note down their IC50.
Assay: Inhibition of Influenza A virus (A/Duck/Guangdong/674/2014(H5N6)) Neuraminidase N6 preincubated for 10 mins followed by MUNANA substrate addition and measured after 40 mins by fluorescence method
Please respond with the number in nM and leave the unit unwritten.

IC50 recorded for this compound, CCC(CC)O[C@@H]1C=C(C(=O)NCc2cn(Cc3ccccc3Cl)nn2)C[C@H](N)[C@H]1NC(C)=O , is 130

Per the record, CCC(CC)O[C@@H]1C=C(C(=O)NCc2cn(CSc3ccccc3)nn2)C[C@H](N)[C@H]1NC(C)=O has IC50 of 4590

Lab book: IC50 of CCC(CC)O[C@@H]1C=C(C(=O)NCc2cn(Cc3cccc([N+](=O)[O-])c3)nn2)C[C@H](N)[C@H]1NC(C)=O noted as 2850

----------
Assay: Inhibition of Influenza A virus (A/Duck/Guangdong/674/2014(H5N6)) Neuraminidase N6 preincubated for 10 mins followed by MUNANA substrate addition and measured after 40 mins by fluorescence method
I'd appreciate it if you could supply pIC50 values for the items below.
Note: pIC50 values are expressed as the negative base-10 logarithm of concentration in M.

Kindly note the recorded pIC50 for CCC(CC)O[C@@H]1C=C(C(=O)O)C[C@H](N)[C@H]1NC(C)=O [OSELTAMIVIR CARBOXYLATE] , which is 7.74

For this molecule ( CCC(CC)O[C@@H]1C=C(C(=O)NCc2cn(Cc3ccccc3)nn2)C[C@H](N)[C@H]1NC(C)=O ), measured pIC50 is 6.00

Sure, the documented pIC50 for CCC(CC)O[C@@H]1C=C(C(=O)NCc2cn(C3CCCCC3)nn2)C[C@H](N)[C@H]1NC(C)=O is 5.70

----------
Can you tell me IC50 for the items I'm about to list?
Assay: Inhibition of Influenza A virus (A/Duck/Guangdong/674/2014(H5N6)) Neuraminidase N6 preincubated for 10 mins followed by MUNANA substrate addition and measured after 40 mins by fluorescence method
Your answer should be a plain number; it is taken to be in nM.

The molecule CCC(CC)O[C@@H]1C=C(C(=O)NCc2cn(Cc3ccc(F)cc3)nn2)C[C@H](N)[C@H]1NC(C)=O showed IC50 equal to 3200

Item: CCC(CC)O[C@@H]1C=C(C(=O)NCc2cn(CCc3ccccc3)nn2)C[C@H](N)[C@H]1NC(C)=O | IC50: 570

# molecule CCC(CC)O[C@@H]1C=C(C(=O)NCc2cn(Cc3cccc(F)c3)nn2)C[C@H](N)[C@H]1NC(C)=O ; its IC50 = 2000

Data point: CCC(CC)O[C@@H]1C=C(C(=O)NCc2cn(Cc3ccc(Cl)c(F)c3)nn2)C[C@H](N)[C@H]1NC(C)=O ; IC50 = 2800
